Cited source for all entries: patent US20210054097A1

Molecular target: T1, FX activation peptide 12-mer EAPDSITWKPYD (human)
T1 peptide: EAPDSITWKPYD-biotin
Assay: peptide ELISA
Ends that are not written are not given here.
The entries below are paired with their reported ELISA signal relative to background.
Measured attribute: ELISA signal relative to background

* Nb 702C12 (VHH, monovalent Nanobody; not shown: C-terminal FLAG3 and HIS6 tag) VHH: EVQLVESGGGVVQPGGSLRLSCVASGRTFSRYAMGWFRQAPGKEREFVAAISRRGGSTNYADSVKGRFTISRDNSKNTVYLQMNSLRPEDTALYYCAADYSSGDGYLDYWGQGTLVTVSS | 0.97
* Nb 701C06 (VHH, monovalent Nanobody; not shown: C-terminal FLAG3 and HIS6 tag) VHH: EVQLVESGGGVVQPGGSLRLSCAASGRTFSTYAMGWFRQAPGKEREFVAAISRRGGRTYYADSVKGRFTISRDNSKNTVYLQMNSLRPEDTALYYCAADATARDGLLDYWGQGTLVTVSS | 0.89
* Nb 730C03 (VHH, monovalent Nanobody; also called Nb 730003; not shown: C-terminal FLAG3 and HIS6 tag) VHH: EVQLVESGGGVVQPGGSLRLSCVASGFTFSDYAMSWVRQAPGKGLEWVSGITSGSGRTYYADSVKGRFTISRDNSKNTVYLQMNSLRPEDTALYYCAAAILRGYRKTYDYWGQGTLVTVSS | 1.24
* Nb 501A02 (VHH, monovalent control Nanobody; also called control Nanobody; not shown: C-terminal FLAG3 and HIS6 tag) VHH: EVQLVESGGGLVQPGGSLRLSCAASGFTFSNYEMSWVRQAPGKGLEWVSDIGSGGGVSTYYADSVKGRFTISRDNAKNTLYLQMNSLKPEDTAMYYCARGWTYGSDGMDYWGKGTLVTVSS | 0.76
* Nb 729C08 (VHH, monovalent Nanobody; also called Nb 729008; not shown: C-terminal FLAG3 and HIS6 tag) VHH: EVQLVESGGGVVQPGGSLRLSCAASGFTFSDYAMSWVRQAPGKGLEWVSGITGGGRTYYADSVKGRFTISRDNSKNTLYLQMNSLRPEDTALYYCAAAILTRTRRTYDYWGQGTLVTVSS | 1.11
* Nb 729A04 (VHH, monovalent Nanobody; not shown: C-terminal FLAG3 and HIS6 tag) VHH: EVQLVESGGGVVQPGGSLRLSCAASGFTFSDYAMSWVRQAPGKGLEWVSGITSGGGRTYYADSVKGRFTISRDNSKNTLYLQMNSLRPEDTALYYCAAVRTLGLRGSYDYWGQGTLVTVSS | 1.01
* Nb 701B09 (VHH, monovalent Nanobody; also called Nb 701609; not shown: C-terminal FLAG3 and HIS6 tag) VHH: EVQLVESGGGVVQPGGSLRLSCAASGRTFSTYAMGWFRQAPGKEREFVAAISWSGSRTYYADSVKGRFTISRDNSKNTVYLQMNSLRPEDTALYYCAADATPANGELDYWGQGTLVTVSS | 0.79
* Nb 701D07 (VHH, monovalent Nanobody; not shown: C-terminal FLAG3 and HIS6 tag) VHH: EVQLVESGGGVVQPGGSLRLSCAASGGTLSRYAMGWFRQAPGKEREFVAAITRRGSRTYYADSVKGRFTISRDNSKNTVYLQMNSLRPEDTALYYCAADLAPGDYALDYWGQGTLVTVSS | 0.76
